- run description: yeast display, Sf9 membrane polyspecificity reagent, FACS + sequencing; frameworks hold sequencing errors
measured metric: polyreactivity (PSR sort gate)

Example entries and their recorded answers appear below.
Indicate its recorded polyreactivity (PSR sort gate); the sequence in question is "QVQLVESGGGLVQAGGSLRLSCAASGFTFYRNDIGWYRQAPGKERELVAAITFSGGITYYADSVKGRFTISRDNAKNTVYLQMNSLKAEDTAVYYCAAEGVGAARVYQGGEYNYWGQGTQVTVSS" low polyreactivity

Indicate its recorded polyreactivity (PSR sort gate); the sequence in question is "QVQLVESGGGLVQAGGSLRLSCAASGRIFTRNAMGWYRQAPGKERELVAAISNGGRTNYADSVKGRFTISRDNAKYTVYLQMNSLKPEDTAVYYCNARYLPRSTIYDYWGQVTQVTVSS" high polyreactivity

Indicate its recorded polyreactivity (PSR sort gate); the sequence in question is "QVQLVESGGGLVQAGGSLRLSCAASGSTFSIYAMGWYRQAPGKERELVAAISSSGGSTYYADSVKGRFTISRDNAKNTFYLQMNSLKPEDTAVYYCNKRKYHVRYDYWGQGTQVTVSS" low polyreactivity

Indicate its recorded polyreactivity (PSR sort gate); the sequence in question is "QVQLVESGGGLVQAGGSHRLSCAASGSIFYVNAMGWYRQSPGKERELVAAINRGGVSTYYADSVKGRFTISRDNAKNTVYLLMNSLKPEDTAVYYCATDFYLSTYSHYVWLYGYEFYYWGQGTQVTVSS" low polyreactivity

Indicate its recorded polyreactivity (PSR sort gate); the sequence in question is "QLQLVESGRGLVQAGGSLRLSCAPSGRILVLIAMGWYRQATGKERELVADITSGGSTYYADSVKGRFTISRDNAKKTVYLQMNSLKKEDTAVYYCAADWNTYPDYQQSYFVCYEYNYWGQGTQVTVSS" low polyreactivity

Indicate its recorded polyreactivity (PSR sort gate); the sequence in question is "QVQLVESGGGLVQAGGSLRLSCAASGITFDKNTMGWYRQAPGKERELVAAISARGGSTYYADSVKGRFTISRDNAKNTVYLQMNSLKPEDTAVYSCAADYSARYGYWGQGTQVNVSS" high polyreactivity

Indicate its recorded polyreactivity (PSR sort gate); the sequence in question is "QVQLVESGGGLVQAGGSLRLSCAASGFIFFGEYVMGWYRQAPGKEREFVAAITDSDGSTYYADSVKGRFTISRDNAKNTVYLQMTSLKPEDTAVYYCAAERVCSDMDYWGQGTQVTVSS" low polyreactivity

Indicate its recorded polyreactivity (PSR sort gate); the sequence in question is "QVQLLESGGGLVQAGGSLRLSCAASGSNFSSYAMGWSRQAPGTERELVASISRRGGSTYYADSVKGRFTISRDNAKNTVYLQMNSLKPEDTAVYYCNASGGPYRYYYWGQGTQVTVSS" low polyreactivity

Indicate its recorded polyreactivity (PSR sort gate); the sequence in question is "QVQLVESGGGLVQAGGSLRLSCAASVYIFVPYTLGWYRQAPGKERELVAAITRSGGSTYYADSVKGRFTISRDNAKNTVSLQMNSLKPEDTAVYYCATVGGPRWVRAQYDYWGQGTQVTVSS" high polyreactivity

Indicate its recorded polyreactivity (PSR sort gate); the sequence in question is "QVQLVESGGGLDQARGSLRLSCAASGRIFRSYVMGWYRQAPWKERELVAAISWRGGSTYADSVKGRFTISRDNAKNTVYLQMNSLKPEDTAVYYCAARGPYTYRRYCYWGQGTQVTVSS" high polyreactivity

Others:
Indicate its recorded polyreactivity (PSR sort gate); the sequence in question is "QVHLVESGGCLLQAGGSLRLSCAASGSIFIINAMGWYRQAPGKERELVAAINNGVNTYYADSVKVRFTISRDNAKNTVYLQKNSLKPEDTAVYYCAADPYFYYYGYDYWGQGTQVTVSS" low polyreactivity

###

- run description: yeast display, Sf9 membrane polyspecificity reagent, FACS + sequencing; frameworks hold sequencing errors
measured metric: polyreactivity (PSR sort gate)

Example entries and their recorded answers appear below.
Indicate its recorded polyreactivity (PSR sort gate); the sequence in question is "QVQLVESGGGLGQAGGSLRLSCAASGSIFDWYAMGWYRKAPGKEGELVAAISSGDSTYYADSVKGRFTISRDNAKNTFYLQMNSLKPEDTAVYYCAAVTKLSGIRYNYWGQGTQVTVSS" low polyreactivity

Indicate its recorded polyreactivity (PSR sort gate); the sequence in question is "QVQLVESGGGLVQAGGSLRLICAASGSIFRNNARGWYRQAAGKERELVAVISRRSGNTYYADSVKGRFTISRDNAKNTVYLQMNSLKPEDTAVYYCAADYSKSSIRGDYWGQGTQVTVSS" low polyreactivity

Indicate its recorded polyreactivity (PSR sort gate); the sequence in question is "QFQLVESGGGLVQAGGSLRLSCAASGRIIAFYARGWYRQAPGKERELVAAITSGSSTNYADSVKGRFTISRDNAKNTVYLQMNSLKPEDTAVYYCAAEGLRKGDRTDWKLYEYWGQGTQVTVSS" high polyreactivity

Indicate its recorded polyreactivity (PSR sort gate); the sequence in question is "QVQLVESGGGLVQAGGSLRLSCAASGFTSLIYAMGWSRQAPGKESELVATITWGGGSTYADSVKGRFTISRDNAKNTVYLQMNSLKPEDTAVYYCNADIYDSWDYATVYSDRYDYWGQGTQVTVSS" low polyreactivity

Indicate its recorded polyreactivity (PSR sort gate); the sequence in question is "QVQLVESGGGLVQAGGSLRLSCAASGSIFPYYAMGWYRQAPGKERELVAAISDSGDSTYYADSVKGRFTISRDNAKNTVYLQMNSLKPEDTAVYYCAADQTSSYYDPWGDYWGQGTQVTVSS" low polyreactivity

Indicate its recorded polyreactivity (PSR sort gate); the sequence in question is "QVQLVESGRCLVQAGCSLRLSCAASGYTFSRSAMGWYRQAPGKERELVAAISWSGGSTYYADSVKGRFTISRDNAKNTVYLQMNSLKPEDTAVYYCIKVRYVSQTAFYYWGQGTQVTVSS" high polyreactivity

Indicate its recorded polyreactivity (PSR sort gate); the sequence in question is "RYADSVKGRFTISRDNAKNTDYLQMNSLKPEDTAVYYCAAKGPEPPSLDESDYWGQVTQVTVSS" low polyreactivity

Indicate its recorded polyreactivity (PSR sort gate); the sequence in question is "QVQLVESGGGLVQAGGSLRLSCAASGFTFQYYAMGWYRQAPGKERELVAAISWSGTSPYYADSVKGRFTISRDNAKNTVYLQMISLKPADTAVYDCAASVWYYYSDYDYWGQGTQVTVSS" high polyreactivity

Others:
Indicate its recorded polyreactivity (PSR sort gate); the sequence in question is "QVQLVESGAGLVQAGGSLRLSCAASGIIFTDYAMGWYRQAPGKERELVAANSSGGGSTYYADSVKGRFTISRDNAKNSVYLQLNSLKPDDTAVYDCAAQSSGSYGFDHWGQGTQVTVSS" high polyreactivity

Indicate its recorded polyreactivity (PSR sort gate); the sequence in question is "QVQLVESGGGLVQAGGILRLSCAASGRILVSYAMGWYRQAPGKERELVAAISRSGGSTYYADSVKGRFTISRDNAKNTVYLQMNSLKPEDTAVYYCNVYRFSRYDYWGQGTQVTVSS" high polyreactivity

Indicate its recorded polyreactivity (PSR sort gate); the sequence in question is "QVHLVESGGGLVQAGGILRVSCAASGRIFRTYVMGWYRQAPGKERELVAAITQRGGTTYYADSVKRRFTISRDNAKNTVYLQMNSLKPEDTAVYYCATRYRYYTERDYWGLGTQVTVSS" high polyreactivity

###

- run description: yeast display, Sf9 membrane polyspecificity reagent, FACS + sequencing; frameworks hold sequencing errors
measured metric: polyreactivity (PSR sort gate)

Indicate its recorded polyreactivity (PSR sort gate); the sequence in question is "QVQLVESGGGLVQAGGSLRLSCAASGRIFDLNAMGWYRQAPGKERELVAAISYSGGRTFYADSVKGRFTISRDNAKNTVYLQMNSLKPEDTAVYYCNARYGKPAYQYRMDYWGQGTQVTVSS" low polyreactivity

Indicate its recorded polyreactivity (PSR sort gate); the sequence in question is "QVQLVESGGGLVQAGGSLRLSCAASGRTFTSYAMGWYRQAPGKERELVAVITWRGVSTYYADSVKGRFTISRDNAKNTVYLQMNSLKPEDTAVYYCAARRPGYYPYKGFDYWGQGTQVTVSS" high polyreactivity

Indicate its recorded polyreactivity (PSR sort gate); the sequence in question is "QVQLVESGGGLVQAGGSLRLSCAASGVIFSFYAMGWDREAPGKERELVAAISSSGSTNYADSVKGRFTISRDNAKNTVYLQMNSLKPEDTAVYYCNTYFRYFSFYGRPFDYWGQGTQVTVSS" high polyreactivity

Indicate its recorded polyreactivity (PSR sort gate); the sequence in question is "QVQLVESGGGLVQAGGSLRLSCAASGSTFVTNDMGWYRQAPGKERDLVADISWSGGDTYYADSVKGRFTISRDNAKNTVYLQMNSLKPEDTAVYYCAARPDQGLAYSPLPWYNYWGQGTQVTVSS" low polyreactivity

Indicate its recorded polyreactivity (PSR sort gate); the sequence in question is "QVQLVESGGGLVQAGGSLRLSCAASGRTFAFNTMGWYRQAPGKERELVDAIRFSAGSTYYADSVKGRFTISRDNAKNTVYLQMNSLKPEDTAVYYCAASYGDRGGWGPGVDYWGQGTQVTVSS" low polyreactivity

Indicate its recorded polyreactivity (PSR sort gate); the sequence in question is "QVQLVESGGGLVQAGGSLRLSCAASGFIFSKYTMGWYRQAPGKETELVAAISSGGRTYYADSVKGRFTISRDNAKNTVYLQMNSLKPEDTAVYYCAVRGYIASQQAAGGGRNYYYWGQGTQVNVSS" high polyreactivity

Others:
Indicate its recorded polyreactivity (PSR sort gate); the sequence in question is "QVQLVESGGGLVQEGGSLRLSCAASGSIFGGYVMGWYRQAPGKERELVAAITSGGSTYYADSVKGRFTISRDNAKNTVYLQMNSLKPEDTAVYYCAKDYGDWGQGTQVTVSS" low polyreactivity
